Entry source: paper PMC11475289

target: full-length human PARP1 (Homo sapiens, UniProt P09874); construct: Briefly, full‐length human PARP1 was produced in E. coli Rosetta2 (DE3); made in house; host or cells: E. coli Rosetta2 (DE3); test: PARP1 enzymatic assay (homogeneous NAD+ consumption assay); type: biochemical; details: 5 nM PARP1, 500 nM NAD+, 30 min; averaged on three replicas
Sequence (P09874 whole entry): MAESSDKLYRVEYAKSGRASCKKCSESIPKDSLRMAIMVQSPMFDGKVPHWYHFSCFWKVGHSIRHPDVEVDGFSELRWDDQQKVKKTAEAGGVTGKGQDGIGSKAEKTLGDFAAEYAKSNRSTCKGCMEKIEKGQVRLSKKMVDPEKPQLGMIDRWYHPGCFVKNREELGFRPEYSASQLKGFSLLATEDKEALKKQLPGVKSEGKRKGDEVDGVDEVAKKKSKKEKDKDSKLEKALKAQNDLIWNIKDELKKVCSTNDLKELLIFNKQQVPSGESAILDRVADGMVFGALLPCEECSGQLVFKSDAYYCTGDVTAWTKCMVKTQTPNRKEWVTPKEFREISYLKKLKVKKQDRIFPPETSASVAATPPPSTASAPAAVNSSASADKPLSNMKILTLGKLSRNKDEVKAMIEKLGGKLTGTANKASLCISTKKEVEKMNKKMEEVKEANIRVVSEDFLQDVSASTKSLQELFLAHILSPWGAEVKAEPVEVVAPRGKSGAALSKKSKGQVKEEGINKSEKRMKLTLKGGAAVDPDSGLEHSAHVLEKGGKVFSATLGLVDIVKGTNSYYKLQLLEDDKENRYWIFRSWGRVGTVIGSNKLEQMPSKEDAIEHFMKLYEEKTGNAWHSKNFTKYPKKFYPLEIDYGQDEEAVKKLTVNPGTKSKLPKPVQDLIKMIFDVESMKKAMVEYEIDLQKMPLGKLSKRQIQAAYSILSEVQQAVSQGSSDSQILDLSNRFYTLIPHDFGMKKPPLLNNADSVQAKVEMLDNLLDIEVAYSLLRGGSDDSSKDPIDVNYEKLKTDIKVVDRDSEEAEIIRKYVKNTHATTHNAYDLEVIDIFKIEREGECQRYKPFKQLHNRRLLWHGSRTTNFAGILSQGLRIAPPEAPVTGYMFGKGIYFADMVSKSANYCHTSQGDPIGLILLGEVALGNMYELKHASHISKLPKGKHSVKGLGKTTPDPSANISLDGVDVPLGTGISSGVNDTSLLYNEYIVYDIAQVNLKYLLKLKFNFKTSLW
METRIC_NAME: IC50 (nM)
Give the quantity in nM, number only.

Here are 2 compounds together with their reported answers.
| COMPOUND | IC50 / nM |
| --- | --- |
| CC1CC1C(=O)c1ccc(-c2n[nH]c(=O)c3ccccc23)cc1 (stereo not drawn) [Row745(2)] | 908 |
| CCCC(O)c1ccc(-c2n[nH]c(=O)c3ccccc23)cc1 (stereo not drawn) [Row86] | 755 |

Look up IC50 for this compound: O=c1[nH]nc(-c2ccc(Br)cc2)c2ccccc12 [Row86 (I), 4‐(4‐bromophenyl)‐2H‐phthalazin‐1‐one]
395
